Here, each record is paired with measured MIC80 data.
Tested on: Candida albicans
Measurement Notes: Antifungal activity against fluconazole-sensitive Candida albicans SC5314 after 24 hrs by serial dilution method
Format: functional
Assay Setup: SC5314, 24 h
Kindly answer with a numeric value in µg/mL, unit omitted.

Challenge: What value of MIC80 has been reported for the following compound? Fc1ccc2c(c1)c1c(n2CCCOc2cccc(F)c2F)CCNC1
Response given: 32

Challenge: And what about the compound Cc1ccc(OCCCn2c3c(c4cc(F)ccc42)CNCC3)cc1 ?
Response given: 8

Challenge: Also COc1ccc(OCCCn2c3c(c4cc(F)ccc42)CNCC3)cc1 ?
Response given: 8

Challenge: How about Cc1ccc2c3c(n(CCCOc4ccc(Cl)cc4)c2c1)CCN(C)C3 ?
Response given: 32

---

System: Nakaseomyces glabratus
Measurement Notes: Antifungal activity against Candida glabrata 537 after 24 hrs by serial dilution method
Type: functional
Assay Setup: Nakaseomyces glabratus, 537, 24 h
Quick list: MIC80 per entry.
Please respond with the number in µg/mL and leave the unit unwritten.

Molecule: CN1CCc2c(c3cc(Cl)ccc3n2C(=O)c2ccc(Cl)cc2)C1
Value Type: MIC80
Measured Value: 32
--
Molecule: CN1CCc2c(c3cc(Cl)ccc3n2CC(O)c2ccccc2)C1 (centres undefined)
Value Type: MIC80
Measured Value: 32
--
Molecule: CN1CCc2c(c3cccc(Cl)c3n2CCCOc2ccc(Cl)cc2)C1
Value Type: MIC80
Measured Value: 32
--
Molecule: CN1CCc2c(c3cc(Cl)ccc3n2Cc2ccc(Cl)cc2)C1
Value Type: MIC80
Measured Value: 16
--
Molecule: Cc1ccc2c3c(n(CCCOc4ccc(Cl)cc4)c2c1)CCN(C)C3
Value Type: MIC80
Measured Value: 16

Challenge: Which MIC80 reading was recorded for the molecule OC(Cn1cncn1)(Cn1cncn1)c1ccc(F)cc1F ?
Response given: 0.5

Challenge: Now give it for CN1CCc2c(c3cc(Cl)ccc3n2C(=O)c2cccc(Cl)c2)C1 too.
Response given: 32

Challenge: // same read-out, input: CN1CCc2c(c3cc(Cl)ccc3n2CCCOc2ccc(Cl)cc2)C1
Response given: 16

---

Tested on: Pichia kudriavzevii
Measurement Notes: Antifungal activity against Candida krusei 0710397 after 7 days by serial dilution method
Type: functional
Assay Setup: Pichia kudriavzevii, 0710397, 168 h
Each item that follows carries a reported MIC80.
Write down the numeric answer in µg/mL and omit the unit.

Below: 5 molecules and their reported MIC80.
Smiles Representation: Fc1ccc(OCCCCCn2c3c(c4cc(F)ccc42)CNCC3)cc1
MIC80 [µg/mL]: 4

Smiles Representation: Fc1ccc2c(c1)c1c(n2CCCOc2ccccc2Cl)CCNC1
MIC80 [µg/mL]: 64

Smiles Representation: CC(C)(C)c1ccc(OCCCn2c3c(c4cc(F)ccc42)CNCC3)cc1
MIC80 [µg/mL]: 16

Smiles Representation: Fc1ccc(OCCCCn2c3c(c4cc(F)ccc42)CNCC3)cc1
MIC80 [µg/mL]: 4

Smiles Representation: OC(Cn1cncn1)(Cn1cncn1)c1ccc(F)cc1F
MIC80 [µg/mL]: 4

Now for the molecule whose MIC80 we want.
Challenge: Entry Fc1ccc2c(c1)c1c(n2CCCOc2ccc(Cl)cc2)CCNC1 has what MIC80?
Response given: 4

---

# Lookup of reported MIC80 keyed by entry
Test system: Pichia kudriavzevii
Measurement Notes: Antifungal activity against Candida krusei 0710397 after 7 days by serial dilution method
Format: functional
Assay Setup: Pichia kudriavzevii, 0710397, 168 h
Return type: number; implicit unit µg/mL.

As a guide, the following entries are already answered.
Smiles Representation: Fc1ccc(NCCCn2c3c(c4cc(F)ccc42)CNCC3)cc1
Tested Target: Pichia kudriavzevii
Result Unit: µg/mL
MIC80: 16
--
Smiles Representation: Fc1ccc2c(c1)c1c(n2CCCOc2ccc(Br)cc2)CCNC1
Tested Target: Pichia kudriavzevii
Result Unit: µg/mL
MIC80: 4

Challenge: I have this compound here, Cc1ccccc1OCCCn1c2c(c3cc(F)ccc31)CNCC2 , and I need its recorded MIC80.
Response given: 16

---

Below, each entry is listed with its recorded MIC80.
Test system: Candida albicans
Measurement Notes: Antifungal activity against fluconazole-sensitive Candida albicans SC5314 after 24 hrs by serial dilution method
Format: functional
Assay Setup: SC5314, 24 h
Could you give me the number in µg/mL? Just the number is fine.

Challenge: For Candida albicans, provide MIC80 of CN1CCc2c(c3cc(Cl)ccc3n2Cc2ccccc2)C1 please.
Response given: 64

Challenge: Same again, this time with Fc1ccc2c(c1)c1c(n2CCCOc2ccccc2Cl)CCNC1
Response given: 32

Challenge: Same again, this time with CN1CCc2c(c3cc(Cl)ccc3n2Cc2ccc(Cl)cc2)C1
Response given: 64

Challenge: Can you handle Fc1ccc2c(c1)c1c(n2CCCOc2ccc(Cl)cc2)CCNC1 next?
Response given: 2

Challenge: Queued: Cc1ccccc1OCCCn1c2c(c3cc(F)ccc31)CNCC2
Response given: 4

---

Test system: Pichia kudriavzevii
Measurement Notes: Antifungal activity against Candida krusei 0710397 after 7 days by serial dilution method
Format: functional
Assay Setup: Pichia kudriavzevii, 0710397, 168 h
Value Type: MIC80 (µg/mL)
Give just the numeric value; µg/mL need not be written.

// known answers, use as guide
Smiles Representation: Fc1ccc2c(c1)c1c(n2CCCOc2ccccc2)CCNC1
Result Unit: µg/mL
MIC80: 16

Smiles Representation: Fc1ccc(OCCCn2c3c(c4cc(F)ccc42)CNCC3)cc1
Result Unit: µg/mL
MIC80: 4

Smiles Representation: Cc1ccc2c(c1)c1c(n2CCCOc2cccc(Br)c2)CCNC1
Result Unit: µg/mL
MIC80: 4

Smiles Representation: COc1ccc(OCCCn2c3c(c4cc(F)ccc42)CNCC3)cc1
Result Unit: µg/mL
MIC80: 16

Smiles Representation: Fc1cc(F)c(OCCCn2c3c(c4cc(F)ccc42)CNCC3)c(F)c1
Result Unit: µg/mL
MIC80: 4

Smiles Representation: Clc1ccc2c(c1)c1c(n2CCCOc2cccc(Br)c2)CCNC1
Result Unit: µg/mL
MIC80: 4

Challenge: Fill blank: measured MIC80 of the molecule Fc1ccc(OCCCn2c3c(c4cc(Br)ccc42)CNCC3)cc1 is ____.
Response given: 4

Challenge: Likewise for Fc1ccc(F)c(OCCCn2c3c(c4cc(F)ccc42)CNCC3)c1 ?
Response given: 4

Challenge: One more molecule: Cc1ccc2c(c1)c1c(n2CCCOc2ccc(F)cc2)CCNC1
Response given: 16

Challenge: Query Fc1ccc2c(c1)c1c(n2CCCOc2ccc(F)c(F)c2F)CCNC1 next
Response given: 4

Challenge: Another molecule to look at: Fc1ccc2c(c1)c1c(n2CCCOc2c(F)cccc2F)CCNC1
Response given: 4

---

Tested on: Candida albicans
Measurement Notes: Antifungal activity against fluconazole-sensitive Candida albicans SC5314 after 24 hrs by serial dilution method
Type: functional
Assay Setup: SC5314, 24 h
Value Type: MIC80 (µg/mL)
Please respond with the number in µg/mL and leave the unit unwritten.

Recorded MIC80, per entry:
Smiles Representation: Fc1ccc(OCCCCCn2c3c(c4cc(F)ccc42)CNCC3)cc1
Value Type: MIC80
Measured Value: 16
//
Smiles Representation: Fc1ccc(OCCCCn2c3c(c4cc(F)ccc42)CNCC3)cc1
Value Type: MIC80
Measured Value: 16
//
Smiles Representation: OC(Cn1cncn1)(Cn1cncn1)c1ccc(F)cc1F
Value Type: MIC80
Measured Value: 0.5

Challenge: Look up MIC80: COc1ccc2c(c1)c1c(n2CCCOc2ccc(Cl)cc2)CCN(C)C1
Response given: 32

Challenge: Same lookup for CCN1CCc2c(c3cc(Cl)ccc3n2CCCOc2ccc(Cl)cc2)C1 , please.
Response given: 64

Challenge: Thanks! And CC(C)(C)c1ccc(OCCCn2c3c(c4cc(F)ccc42)CNCC3)cc1 ?
Response given: 8

Challenge: Similarly, Fc1ccc2c(c1)c1c(n2CCCOc2ccc(F)c(F)c2F)CCNC1 ?
Response given: 8

Challenge: And what about the molecule Fc1ccc(OCCCn2c3c(c4cc(F)ccc42)CNCC3)cc1 ?
Response given: 8

---

Tested Target: CYP2C9 (Homo sapiens)
Sequence (P11712 whole entry): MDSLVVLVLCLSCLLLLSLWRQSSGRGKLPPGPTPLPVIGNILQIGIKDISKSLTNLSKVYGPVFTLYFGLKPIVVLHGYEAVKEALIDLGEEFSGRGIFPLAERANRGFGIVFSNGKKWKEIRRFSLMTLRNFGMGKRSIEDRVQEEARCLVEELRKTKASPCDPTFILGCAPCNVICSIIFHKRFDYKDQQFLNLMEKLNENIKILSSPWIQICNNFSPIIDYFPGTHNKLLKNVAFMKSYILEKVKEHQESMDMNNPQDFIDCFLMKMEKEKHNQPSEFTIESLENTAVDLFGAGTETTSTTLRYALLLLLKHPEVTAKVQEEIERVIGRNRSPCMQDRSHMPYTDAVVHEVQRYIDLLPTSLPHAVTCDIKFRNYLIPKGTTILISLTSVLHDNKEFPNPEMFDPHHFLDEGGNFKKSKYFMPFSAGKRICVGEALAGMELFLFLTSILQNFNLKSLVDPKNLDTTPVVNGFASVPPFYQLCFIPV
Measurement Notes: Inhibition of CYP2C9 in human liver microsomes assessed as tolbutamide conversion to 4-hydroxy tolbutamide at 2.5 uM preincubated for 10 mins followed by NADPH addition measured after 15 mins by LC-MS/MS analysis relative to control
Assay type: ADME
Assay Setup: probe tolbutamide
Value Type: inhibition at 0.25 h, 2.5 µM (%)
Your answer is read as %, so omit the unit and give the number.

Challenge: Any idea what inhibition at 0.25 h, 2.5 µM was measured for Fc1ccc2c(c1)c1c(n2CCCOc2ccc(Cl)cc2)CCNC1 ?
Response given: 8

---

Tested Target: Cytochrome P450 3A4 (Homo sapiens)
Sequence (P08684 whole entry): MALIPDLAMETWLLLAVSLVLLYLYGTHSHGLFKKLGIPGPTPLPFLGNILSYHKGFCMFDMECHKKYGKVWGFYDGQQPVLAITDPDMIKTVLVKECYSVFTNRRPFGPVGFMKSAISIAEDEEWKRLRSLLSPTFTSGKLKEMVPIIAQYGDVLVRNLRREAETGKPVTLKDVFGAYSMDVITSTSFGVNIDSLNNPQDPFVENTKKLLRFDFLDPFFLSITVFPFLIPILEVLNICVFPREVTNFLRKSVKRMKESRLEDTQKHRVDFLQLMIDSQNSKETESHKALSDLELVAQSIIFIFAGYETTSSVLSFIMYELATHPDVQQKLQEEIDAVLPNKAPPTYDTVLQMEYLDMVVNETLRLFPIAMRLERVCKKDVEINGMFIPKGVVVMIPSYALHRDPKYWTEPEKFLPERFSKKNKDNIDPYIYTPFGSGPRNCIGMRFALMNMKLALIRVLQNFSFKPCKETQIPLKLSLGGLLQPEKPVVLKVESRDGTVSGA
Measurement Notes: Inhibition of CYP3A4 in human liver microsomes assessed as midazolam conversion to 1'-hydroxy midazolam preincubated for 10 mins followed by NADPH addition measured after 15 mins by LC-MS/MS analysis
Format: ADME
Value Type: IC50
Reply with a number, then the unit it belongs to.

Challenge: So what does the record say about IC50 for Fc1ccc2c(c1)c1c(n2CCCOc2ccc(Cl)cc2)CCNC1 ?
Response given: 50 µM

These entries and their values trace back to ChEMBL document CHEMBL3286225.
